The measurements presented in this section are drawn from patent EP1032559B1.

# assayed-system: clonidine: α2-receptor
# protocol: in vitro clonidine binding: α2-receptor assay
# test-conditions: rat cortical tissue homogenate; 3 nM 3H-clonidine; 20 minutes at 25° C; log-probit analysis; read-out: Inhibition of clonidine binding activity IC50
Where a name gives a salt, the structure may show the parent alone.
outcome-measure: IC50 (nM)
Kindly provide the numeric value in nM only, without the unit symbol.

q: Return IC50 for the following compound: C#CCOc1cc(CN2CCN(c3ccccn3)CC2)ccc1OC [hydrochloride monohydrate]
a: 34.6

---

# assayed-system: UniProt P37136
# Sequence (P37136 32-614): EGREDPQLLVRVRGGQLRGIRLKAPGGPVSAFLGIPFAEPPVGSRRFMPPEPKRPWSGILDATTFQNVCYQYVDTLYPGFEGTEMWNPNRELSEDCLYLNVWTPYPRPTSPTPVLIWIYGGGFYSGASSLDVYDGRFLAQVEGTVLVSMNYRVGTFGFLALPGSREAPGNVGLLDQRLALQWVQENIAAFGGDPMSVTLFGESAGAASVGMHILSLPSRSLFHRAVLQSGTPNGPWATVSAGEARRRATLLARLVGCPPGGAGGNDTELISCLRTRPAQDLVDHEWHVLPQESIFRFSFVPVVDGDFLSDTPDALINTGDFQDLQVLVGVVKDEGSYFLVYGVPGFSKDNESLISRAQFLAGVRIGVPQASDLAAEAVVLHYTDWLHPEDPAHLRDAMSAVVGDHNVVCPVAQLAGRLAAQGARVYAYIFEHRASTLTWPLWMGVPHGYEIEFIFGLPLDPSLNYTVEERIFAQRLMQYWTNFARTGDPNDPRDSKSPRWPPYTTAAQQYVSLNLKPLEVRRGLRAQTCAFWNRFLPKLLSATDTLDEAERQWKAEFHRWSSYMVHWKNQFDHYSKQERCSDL
Structures can show the parent of a compound that is named as a salt.
Would you mind telling me the reported pIC50 of each entry?
Note on units: pIC50 is unitless, being -log10 of a concentration expressed in mol/L.

q: Identify measured pIC50 corresponding to C#CCOc1cc(CN2CCCC2)ccc1OC(=O)NC [reference compound]
a: 8.44

q: Name the recorded pIC50 of the molecule listed here: C#CCOc1cc(CN2CCN(c3ccccn3)CC2)ccc1OC [hydrochloride monohydrate]
a: 4.57
